Biological target: EGFR (Homo sapiens)
Construct: endogenous in cells; host or cells: A431 cells (lysate, captured with SUMO1 anti-EGFR antibody)
Sequence (P00533 25-1210): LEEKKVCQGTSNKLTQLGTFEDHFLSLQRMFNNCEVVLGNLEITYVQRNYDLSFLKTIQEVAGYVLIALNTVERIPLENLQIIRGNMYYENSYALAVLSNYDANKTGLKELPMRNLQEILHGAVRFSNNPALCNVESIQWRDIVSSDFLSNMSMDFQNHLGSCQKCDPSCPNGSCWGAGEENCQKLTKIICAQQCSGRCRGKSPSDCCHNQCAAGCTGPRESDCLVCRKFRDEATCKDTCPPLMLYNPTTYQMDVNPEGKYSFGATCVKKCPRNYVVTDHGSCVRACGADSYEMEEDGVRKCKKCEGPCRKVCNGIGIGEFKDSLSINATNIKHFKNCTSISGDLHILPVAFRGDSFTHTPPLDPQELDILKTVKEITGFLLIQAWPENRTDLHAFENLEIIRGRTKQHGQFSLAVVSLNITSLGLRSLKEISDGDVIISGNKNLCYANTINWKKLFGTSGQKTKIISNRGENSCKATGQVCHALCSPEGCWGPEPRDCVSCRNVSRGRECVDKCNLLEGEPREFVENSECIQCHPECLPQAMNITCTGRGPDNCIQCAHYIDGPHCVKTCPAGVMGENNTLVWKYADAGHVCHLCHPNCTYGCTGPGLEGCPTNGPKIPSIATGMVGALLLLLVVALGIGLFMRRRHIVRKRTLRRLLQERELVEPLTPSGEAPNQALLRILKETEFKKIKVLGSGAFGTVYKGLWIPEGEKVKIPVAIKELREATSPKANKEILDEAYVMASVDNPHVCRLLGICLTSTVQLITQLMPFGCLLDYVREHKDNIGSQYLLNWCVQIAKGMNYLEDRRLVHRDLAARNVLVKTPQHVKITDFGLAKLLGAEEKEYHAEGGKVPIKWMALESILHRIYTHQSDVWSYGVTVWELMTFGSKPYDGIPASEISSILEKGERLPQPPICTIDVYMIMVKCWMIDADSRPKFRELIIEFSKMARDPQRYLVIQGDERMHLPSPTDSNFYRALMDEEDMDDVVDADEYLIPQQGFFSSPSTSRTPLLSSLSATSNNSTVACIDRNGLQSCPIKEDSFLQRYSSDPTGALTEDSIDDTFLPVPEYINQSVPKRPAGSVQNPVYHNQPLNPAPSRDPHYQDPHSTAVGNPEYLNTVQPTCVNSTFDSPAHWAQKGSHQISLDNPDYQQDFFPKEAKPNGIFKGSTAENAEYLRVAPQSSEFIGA
Experiment: Biochemical EGFR Assay
Set-up: concentration or dose not given beside the values
measured_quantity: Biochem EGFR % Inhibition (P.167) (%)
One number for each entry, in %.

1. COc1cc(C=C2C(=O)Nc3c(Br)cc(Br)c(C)c32)cc2c1OCO2; −25.6

Could I get Biochem EGFR % Inhibition (P.167) for every one of these entries?
1. Cc1ccc(C=C2C(=O)Nc3c(Br)cc(Br)c(C)c32)o1
2. Cc1c(Br)cc(Br)c2c1C(=Cc1ccc(O)c(C(C)(C)C)c1)C(=O)N2
3. COc1ccc(C=C2C(=O)Nc3c(Br)cc(Br)c(C)c32)c(O)c1
4. Cc1cccc(C=C2C(=O)Nc3ccc(Br)c(C)c32)c1

1: 17.2; 2: −10.4; 3: −2.6; 4: 90.2
